Tested on: E6SM
assayExplanation: Effective concentration required to reduce vaccinia virus plaque formation by 50% in E6SM Cell Culture
Type: functional, cell-based
measurementSetup: Homo sapiens
readoutKind: EC50 (µg/mL)
Write the value in µg/mL as a bare number.

>  <molSmiles>
Nc1nc2c(ncn2COCCO)c(=O)[nH]1

>  <EC50 (µg/mL)>
0.38

$$$$

Read the next record carefully.
Ask | Quick check: EC50 of Cc1nn([C@H]2C[C@H](O)[C@@H](CO)S2)c(=O)[nH]c1=S ?
Reply | 120

###

System: E6SM
assayExplanation: Effective concentration required to reduce HSV-1 strain KOS ACV virus plaque formation by 50% in E6SM Cell Culture
Assay type: functional, cell-based
measurementSetup: Homo sapiens
The compounds listed here are annotated with their log10(EC50).
On a log10 scale: recorded EC50, unit µg/mL.

>  <molSmiles>
Nc1nc2c(ncn2COC(CO)CO)c(=O)[nH]1

>  <readoutKind>
log10(EC50)

>  <measuredValue>
0.38

$$$$
>  <molSmiles>
O=c1[nH]c(=O)n([C@H]2C[C@H](O)[C@@H](CO)O2)cc1/C=C/Br

>  <readoutKind>
log10(EC50)

>  <measuredValue>
1.20

$$$$
>  <molSmiles>
Nc1nc2c(ncn2COCCO)c(=O)[nH]1

>  <readoutKind>
log10(EC50)

>  <measuredValue>
1.68

$$$$

Ask | Quick check: log10(EC50) of Cc1nn([C@H]2C[C@H](O)[C@@H](CO)S2)c(=O)[nH]c1=S ?
Reply | 2.08

Ask | Then Cc1nn([C@H]2C[C@H](O)[C@@H](CO)S2)c(=O)nc1N ?
Reply | 2.08

Ask | Then CCCc1nn([C@H]2C[C@H](O)[C@@H](CO)S2)c(=O)[nH]c1=O ?
Reply | 2.08

Ask | Then Cc1nn([C@H]2C[C@H](O)[C@@H](CO)S2)c(=O)nc1O ?
Reply | 1.26
